Reference for the values: the antibiotic and cytotoxicity screens of Wong et al. (2023)

- Test system: HepG2
- measurement-description: cytotoxicity call (relative viability < 0.9)
- test-parameters: 10 µM
In all, about 39,000 compounds went through this assay and about 3,300 (8.5%) were called active. Only a selection was taken, and actives are over-represented in it overall.
Pick one: 1 (yes) for active, 0 (no) for inactive

Field: example entries. Status: answers known.
compound: C[C@@H]1CCCCO[C@@H](CN(C)CC2CCCCC2)[C@H](C)CN([C@H](C)CO)C(=O)c2cc(NC(=O)Nc3cccc4ccccc34)ccc2O1
system-tested: HepG2
class-assignment: 1 (yes)
//
compound: C[C@H]1CN([C@@H](C)CO)C(=O)Cc2cc(NS(=O)(=O)c3ccc(F)cc3)ccc2O[C@H]1CN(C)S(=O)(=O)c1cccs1
system-tested: HepG2
class-assignment: 0 (no)

Q: Would you mind telling me which call this test gave `Cc1ccc(S(=O)(=O)Nc2ccc3c(c2)C(=O)N([C@H](C)CO)C[C@H](C)[C@H](CN(C)C(=O)Cc2ccccc2)OCCCC[C@H](C)O3)cc1` ?
Result: 0 (no)

Q: Test call for this compound, please: `C[C@@H]1CN([C@H](C)CO)C(=O)c2cccc(NS(=O)(=O)c3ccc(Cl)cc3)c2O[C@@H]1CN(C)Cc1ccc(C(=O)Nc2ccccc2N)cc1`
Result: 0 (no)

Q: Called result for CC(C)C1=CC2=CCC3C(C)(C(=O)O)CCCC3(C)C2CC1 (centres undefined)
Result: 0 (no)

Q: Answer briefly: the call reported for `CCC(=O)N[C@H]1CC[C@H](CC(=O)OC)O[C@@H]1CO` in this assay.
Result: 0 (no)

Q: Write down the call the test reported for this compound. Item: `C[C@H](CO)N1C[C@H](C)[C@H](CN(C)C(=O)Nc2cccc3ccccc23)Oc2ccc(NC(=O)Nc3ccc4c(c3)OCO4)cc2C1=O`
Result: 0 (no)

---

- Tested on: HepG2
- measurement-description: cytotoxicity call (relative viability < 0.9)
- test-parameters: 10 µM
Out of some 39,000 compounds screened, about 3,300 (8.5%) were called active. This is one part of a sample in which actives are shown more often than they occur.
Outcome field: choose from active, inactive

Q: Hi team, can someone confirm the assay call for `Cc1cc(C)c2c(c1)NC(=O)C[C@H]2c1cccc(Cl)c1Cl` ?
Result: active

Q: Assay outcome for `COCC#Cc1ccc([C@H]2[C@H]3CN(C(=O)CN4CCOCC4)CC(=O)N3[C@H]2CO)cc1` : what was it?
Result: inactive

Q: Give the logged outcome of this assay for the following molecule: `CC(C)(C)[S@](=O)N1Cc2cc(C(=O)NCc3ccc4c(c3)OCO4)nc(-c3cccc(-c4cccnc4)c3)c2[C@@H]1CCO`
Result: inactive

Q: // param item: CC(C)(C)S(=O)N1Cc2cc(C(=O)NCc3ccc4c(c3)OCO4)nc(-c3cccc(-c4cccc(F)c4)c3)c2[C@@H]1CCO (some centres not stated) ; yields the recorded call
Result: active

Q: What call does the record list for `CC(C)(C)[S@@](=O)N1Cc2cc(C(=O)NCc3ccc4c(c3)OCO4)nc(-c3cccc(-c4ccccc4)c3)c2[C@H]1CCO` ?
Result: inactive

Q: What did the test return for `CC(C)(C)[S@@](=O)N1Cc2cc(C(=O)NCc3ccc4c(c3)OCO4)nc(-c3cccc(-c4ccncc4)c3)c2[C@H]1CCO` ?
Result: inactive

Q: Each molecule tested received a call. Report the one for `C[C@H](CO)N1C[C@H](C)[C@@H](CN(C)S(=O)(=O)c2cccs2)OCCCC[C@H](C)Oc2ccc(NS(=O)(=O)c3cn(C)cn3)cc2C1=O` .
Result: inactive

---

- System: HepG2
- measurement-description: cytotoxicity call (relative viability < 0.9)
- test-parameters: 10 µM
Out of some 39,000 compounds screened, about 3,300 (8.5%) were called active. This excerpt belongs to a sample that is enriched for actives.
Mark one answer only. Choices: 1 = active, 0 = inactive

chemical-structure: C[C@@H]1CN([C@@H](C)CO)C(=O)c2cc(NC(=O)Cn3cnnn3)ccc2O[C@@H]1CN(C)Cc1ccc(C(=O)O)cc1
class-assignment: 0

Q: Which outcome was assigned to `Cc1noc(C)c1NC(=O)N(C)C[C@@H]1Oc2c(NC(=O)C3CC3)cccc2C(=O)N([C@H](C)CO)C[C@@H]1C` in this test?
Result: 0

Q: Give the logged outcome of this assay for the following compound: `COc1ccc(NC(=O)N(C)C[C@@H]2Oc3ncc(C#C[C@@H](C)O)cc3C(=O)N([C@@H](C)CO)C[C@@H]2C)cc1`
Result: 0

Q: What was the test verdict on `C[C@@H]1CN([C@H](C)CO)C(=O)c2cc(NC(=O)Cc3ccccc3)ccc2O[C@@H](C)CCCCO[C@@H]1CN(C)Cc1ccc2c(c1)OCO2` ?
Result: 0

---

- System: HepG2
- measurement-description: cytotoxicity call (relative viability < 0.9)
- test-parameters: 10 µM
In all, about 39,000 compounds went through this assay and about 3,300 (8.5%) were called active. Many of the other results were omitted from the sample, so actives are more common in it than they were.
Give your call using only these classes: YES (active), NO (inactive)

These recorded examples may help you get a feel for the data.
chemical-structure: C[C@H]1CCCCO[C@H](CN(C)Cc2ccncc2)[C@@H](C)CN([C@@H](C)CO)C(=O)c2cc(NC(=O)Nc3cccc4ccccc34)ccc2O1
class-assignment: NO

chemical-structure: C[C@@H]1CCCCO[C@@H](CN(C)S(=O)(=O)c2ccccc2)[C@H](C)CN([C@H](C)CO)C(=O)c2cc(NS(C)(=O)=O)ccc2O1
class-assignment: NO

Q: Assay result, entry `O=C(CCCCCNC(=O)OCc1ccc(CO[C@H]2C[C@@H](C3CCCCC3)C=C(C(=O)N3CCN(Cc4ccccc4)CC3)O2)cc1)NO` — outcome?
Result: NO

Q: So what was the verdict on `C[n+]1c2cc(N)ccc2cc2ccc(N)cc21.[Cl-]` in this test?
Result: YES

Q: # fetch the recorded call for `C[C@@H]1CN([C@@H](C)CO)C(=O)Cc2cc(NC(=O)Nc3cccc4ccccc34)ccc2O[C@@H]1CN(C)C(=O)Nc1cccc2ccccc12` here
Result: NO

Q: Dear colleague, could you share the recorded outcome for `COc1ccc2cc(-c3cc(-c4cc(Cl)cc(Cl)c4)nn3[C@@H](C)c3ccc(C(=O)NCCC(=O)O)cc3)ccc2c1` when you have a moment?
Result: NO

Q: Please let me know the test result on file for `C[C@@H]1CCCCO[C@H](CN(C)C(=O)Nc2ccc(C(F)(F)F)cc2)[C@@H](C)CN([C@@H](C)CO)C(=O)c2cc(NS(=O)(=O)c3ccccc3)ccc2O1` .
Result: NO

---

- Tested on: HepG2
- measurement-description: cytotoxicity call (relative viability < 0.9)
- test-parameters: 10 µM
The campaign covered roughly 39,000 compounds. About 3,300 (8.5%) were called active. This is one part of a sample in which actives are shown more often than they occur.
Write down one outcome, taken from Y = active, N = inactive

Illustrative cases are given below, each with its answer.
chemical-structure: COc1ccc([Si](C)(C)[C@H]2[C@H](CC(=O)N(CCO)Cc3ccccc3)O[C@@]3(C(=O)N(Cc4ccc(N5C(=O)c6cccc7cccc5c67)cc4)c4ccccc43)[C@@H]2C)cc1
class-assignment: Y
--
chemical-structure: C[C@@H]1[C@@H]([Si](C)(C)F)[C@H](CC(=O)N2Cc3ccccc3C[C@H]2CO)O[C@@]12C(=O)N(c1ccccc1)c1ccccc12
class-assignment: N

From here, focus on the item given below.
Q: Assay result, entry `COc1cccc(S(=O)(=O)N(C)C[C@H]2Oc3ncc(C#CCC(C)C)cc3C(=O)N([C@@H](C)CO)C[C@@H]2C)c1` — outcome?
Result: N

---

- Test system: HepG2
- measurement-description: cytotoxicity call (relative viability < 0.9)
- test-parameters: 10 µM
In all, about 39,000 compounds went through this assay and about 3,300 (8.5%) were called active. The list comes from a sample in which actives are over-represented; it also holds close analogues and randomly drawn compounds.
Write down one outcome, taken from T = active, F = inactive

compound: C[C@@H]1CCCCO[C@@H](CN(C)C(=O)Cc2ccccc2)[C@@H](C)CN([C@@H](C)CO)C(=O)c2cc(NS(=O)(=O)c3ccc(Cl)cc3)ccc2O1
class-assignment: F

compound: O=C(Nc1ccc(-c2nc3cc(NC(=O)c4ccccc4Cl)ccc3o2)cc1)c1ccccc1Cl
class-assignment: T

Q: Check the results log: what was the call for `Cc1ccc(NC(=O)c2cc(=O)[nH]c(=O)[nH]2)cc1` ?
Result: F

Q: // outcome(item) with item = `CC(C)NC(=O)N[C@@H]1CC[C@@H](CCN)O[C@@H]1CO`
Result: F

Q: Called result for `c1ccc2[nH]c(-c3ccncc3)nc2c1`
Result: F

Q: # lookup: test call for `O=C(CCCCC(=O)N/N=C/[C@H](O)[C@@H](O)[C@H](O)[C@H](O)CO)NO`
Result: F

---

- Tested on: HepG2
- measurement-description: cytotoxicity call (relative viability < 0.9)
- test-parameters: 10 µM
Out of some 39,000 compounds screened, about 3,300 (8.5%) were called active. What follows is part of a selection rich in actives, with near analogues and random picks from the rest.
Respond using exactly one of the listed classes: active, inactive

chemical-structure: C[C@H](CO)N1C[C@H](C)[C@H](CN(C)S(=O)(=O)c2ccc(Cl)cc2)OCCCC[C@H](C)Oc2ccc(NC(=O)Cc3ccccc3)cc2C1=O
class-assignment: inactive

chemical-structure: C[C@@H]1CN([C@@H](C)CO)C(=O)c2cc(NC(=O)Cc3ccccc3)ccc2O[C@@H](C)CCCCO[C@H]1CN(C)S(=O)(=O)c1ccc(Cl)cc1
class-assignment: inactive

chemical-structure: C[C@@H]1CCCCO[C@@H](CN(C)S(=O)(=O)c2ccc(Cl)cc2)[C@@H](C)CN([C@@H](C)CO)C(=O)c2cc(NC(=O)Cc3ccccc3)ccc2O1
class-assignment: inactive

Q: Each compound tested received a call. Report the one for `C[C@@H]1CCCCO[C@H](CN(C)S(=O)(=O)c2ccc(Cl)cc2)[C@@H](C)CN([C@H](C)CO)C(=O)c2cc(NC(=O)Cc3ccccc3)ccc2O1` .
Result: active

Q: Could you please tell me the result logged for `C[C@@H]1CCCCO[C@H](CN(C)S(=O)(=O)c2ccc(Cl)cc2)[C@@H](C)CN([C@@H](C)CO)C(=O)c2cc(NC(=O)Cc3ccccc3)ccc2O1` in this assay?
Result: inactive

Q: Recorded test outcome, item `CO[C@@H]1CN(C)C(=O)c2cc(NS(=O)(=O)c3cn(C)cn3)ccc2OC[C@H](C)N(CC2CC2)C[C@@H]1C`
Result: inactive

Q: // outcome(item) with item = `C[C@@H]1CCCCO[C@H](CN(C)S(=O)(=O)c2ccc(Cl)cc2)[C@H](C)CN([C@H](C)CO)C(=O)c2cc(NC(=O)Cc3ccccc3)ccc2O1`
Result: active

Q: // return assay outcome for `C[C@@H]1CCCCO[C@H](CN(C)C(=O)Nc2ccc(F)cc2)[C@@H](C)CN([C@H](C)CO)C(=O)c2cc(NC(=O)Nc3ccccc3)ccc2O1`
Result: inactive

Q: GET /call?item= `C[C@@H]1CCCCO[C@@H](CN(C)S(=O)(=O)c2ccc(Cl)cc2)[C@H](C)CN([C@H](C)CO)C(=O)c2cc(NC(=O)Cc3ccccc3)ccc2O1` returns the recorded outcome of this test.
Result: active

Q: Hi, sorry to bother you, what did the test record for `C[C@@H]1CN([C@@H](C)CO)C(=O)Cc2cc(NC(=O)CCN3CCOCC3)ccc2O[C@@H]1CN(C)S(=O)(=O)c1ccccc1` ?
Result: inactive
